Listed here are compounds together with their documented Ki.
Target: UniProtKB Q13946
Assay: Competitive inhibition of human recombinant PDE7A1 using 5 nM to 2 uM cAMP as substrate by Lineweaver-Burk plot analysis

{"columns": ["Smiles representation", "Ki [µM]"],
 "data": [
  ["COc1cc(COC(=O)c2ccc(-c3ccccc3)o2)cc(OC)c1OC", 5.91],
  ["COc1cc(CNC(=O)c2ccc(-c3ccc(C)cc3[N+](=O)[O-])o2)cc(OC)c1OC", 7.22]
]}

###

Biological target: High affinity 3',5'-cyclic-AMP phosphodiesterase 7A (Homo sapiens, UniProt Q13946)
Sequence (Q13946 whole entry): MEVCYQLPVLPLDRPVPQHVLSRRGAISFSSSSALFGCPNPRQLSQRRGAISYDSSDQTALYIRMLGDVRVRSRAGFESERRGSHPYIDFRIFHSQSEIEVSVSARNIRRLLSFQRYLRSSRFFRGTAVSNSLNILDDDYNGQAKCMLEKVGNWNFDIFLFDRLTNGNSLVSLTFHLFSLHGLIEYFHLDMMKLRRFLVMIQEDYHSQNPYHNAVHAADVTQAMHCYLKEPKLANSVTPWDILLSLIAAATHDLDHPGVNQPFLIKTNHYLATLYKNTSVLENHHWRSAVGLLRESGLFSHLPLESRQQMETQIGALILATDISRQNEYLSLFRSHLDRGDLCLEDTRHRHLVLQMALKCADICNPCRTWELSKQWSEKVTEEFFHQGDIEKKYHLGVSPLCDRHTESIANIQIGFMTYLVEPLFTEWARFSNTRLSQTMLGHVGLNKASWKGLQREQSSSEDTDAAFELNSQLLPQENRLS
Assay: Inhibition of PDE7A1

{"columns": ["Compound", "IC50, nM"],
 "data": [
  ["CC1CCCCC1NC(=O)C(c1ccccc1Cl)N(CCc1ccccc1Cl)C(=O)CCl (stereo not drawn)", 880],
  ["CCOC(=O)c1sc(NC(=O)C(CC)OC(=O)C(CC(C)C)NC(=O)c2ccccc2)nc1C (stereo not drawn)", 860],
  ["CCOc1cc(C(=O)OCc2ccc(-c3ccc([N+](=O)[O-])cc3C)o2)cc(OCC)c1OCC", 580]
]}

###

Organism: Homo sapiens
Experiment: Selectivity index, ratio of IC50 for human recombinant PDE7A1 to IC50 for human recombinant PDE3A

{"columns": ["Smiles representation", "Ratio IC50"],
 "data": [
  ["COc1cc(COC(=O)c2ccc(-c3ccccc3)o2)cc(OC)c1OC", 0.09],
  ["COc1cc(CNC(=O)c2ccc(-c3ccc(C)cc3[N+](=O)[O-])o2)cc(OC)c1OC", 0.82],
  ["COc1cc(COC(=O)c2ccc(-c3ccc([N+](=O)[O-])cc3)o2)cc(OC)c1OC", 4.15],
  ["COc1cc(COC(=O)c2ccc(-c3ccccc3C(F)(F)F)o2)cc(OC)c1OC", 1.44],
  ["CCOc1cc(C(=O)OCc2ccc(-c3ccccc3)o2)cc(OCC)c1OCC", 0.12]
]}

###

Test system: Astrocyte
Assay: Antiinflammatory activity in rat astrocytes assessed as inhibition of LPS-induced nitrite production at 5 to 10 uM incubated for 1 hr prior to LPS-challenge measured after 24 hrs by Griess method
Format: functional, cell-based
Calls of active or inactive are those of the source. The calls are words filed in the database; no cut-off is given here.
Measured quantity: Activity

{"columns": ["Smiles representation", "Result"],
 "data": [
  ["COc1cc(COC(=O)c2ccc(-c3ccc(Cl)cc3[N+](=O)[O-])o2)cc(OC)c1OC", "Active"],
  ["COc1cc(CNC(=O)c2ccc(-c3ccc(C)cc3[N+](=O)[O-])o2)cc(OC)c1OC", "Active"],
  ["CCOc1cc(C(=O)OCc2ccc(-c3ccccc3)o2)cc(OCC)c1OCC", "Active"],
  ["COc1cc(COC(=O)c2ccc(-c3ccc([N+](=O)[O-])cc3)o2)cc(OC)c1OC", "Active"],
  ["COc1cc(COC(=O)c2ccc(-c3ccccc3)o2)cc(OC)c1OC", "Active"],
  ["COc1cc(COC(=O)c2ccc(-c3ccccc3C(F)(F)F)o2)cc(OC)c1OC", "Active"]
]}

###

Biological target: cGMP-inhibited 3',5'-cyclic phosphodiesterase 3A (Homo sapiens)
Sequence (Q14432 whole entry): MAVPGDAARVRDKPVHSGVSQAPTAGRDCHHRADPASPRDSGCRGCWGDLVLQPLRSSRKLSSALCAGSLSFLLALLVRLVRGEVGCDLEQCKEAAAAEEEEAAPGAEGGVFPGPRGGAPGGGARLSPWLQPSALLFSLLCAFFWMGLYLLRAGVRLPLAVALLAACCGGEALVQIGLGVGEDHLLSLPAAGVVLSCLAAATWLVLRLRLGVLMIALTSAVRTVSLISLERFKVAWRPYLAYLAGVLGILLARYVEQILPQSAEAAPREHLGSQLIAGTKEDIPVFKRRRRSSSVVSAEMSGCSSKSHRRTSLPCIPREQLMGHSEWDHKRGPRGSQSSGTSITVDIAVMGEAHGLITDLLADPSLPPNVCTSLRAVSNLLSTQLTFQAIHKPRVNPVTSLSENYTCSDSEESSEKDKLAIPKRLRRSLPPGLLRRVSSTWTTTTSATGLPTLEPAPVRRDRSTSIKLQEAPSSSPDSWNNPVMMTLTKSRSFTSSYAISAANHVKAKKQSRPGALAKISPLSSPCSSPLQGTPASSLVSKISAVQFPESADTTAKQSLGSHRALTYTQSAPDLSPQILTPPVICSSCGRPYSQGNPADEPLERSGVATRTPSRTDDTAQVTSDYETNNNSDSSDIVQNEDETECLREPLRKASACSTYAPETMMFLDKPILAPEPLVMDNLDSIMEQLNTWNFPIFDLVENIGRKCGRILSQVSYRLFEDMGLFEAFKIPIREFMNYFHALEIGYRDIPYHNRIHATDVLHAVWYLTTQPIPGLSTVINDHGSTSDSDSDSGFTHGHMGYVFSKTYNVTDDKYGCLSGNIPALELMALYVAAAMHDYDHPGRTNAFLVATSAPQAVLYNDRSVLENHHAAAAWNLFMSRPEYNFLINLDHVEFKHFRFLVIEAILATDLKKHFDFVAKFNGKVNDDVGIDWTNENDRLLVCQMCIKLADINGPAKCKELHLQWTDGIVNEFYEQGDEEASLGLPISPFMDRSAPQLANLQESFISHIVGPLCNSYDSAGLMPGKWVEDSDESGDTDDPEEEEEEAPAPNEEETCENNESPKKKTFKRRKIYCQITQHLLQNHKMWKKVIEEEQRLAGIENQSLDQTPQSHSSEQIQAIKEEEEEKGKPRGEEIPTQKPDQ
Assay: Inhibition of human recombinant PDE3A-mediated [3H]cAMP hydrolysis after 20 mins by scintillation proximity assay
Recorded measurements of IC50, one per entry

{"columns": ["Smiles representation", "IC50 (µM)"],
 "data": [
  ["CCOc1cc(C(=O)OCc2ccc(-c3ccccc3)o2)cc(OCC)c1OCC", 104],
  ["COc1cc(COC(=O)c2ccc(-c3ccccc3)o2)cc(OC)c1OC", 54.6],
  ["COc1cc(CNC(=O)c2ccc(-c3ccc(C)cc3[N+](=O)[O-])o2)cc(OC)c1OC", 3.9],
  ["COc1cc(COC(=O)c2ccc(-c3ccc([N+](=O)[O-])cc3)o2)cc(OC)c1OC", 3.4],
  ["COc1cc(COC(=O)c2ccc(-c3ccccc3C(F)(F)F)o2)cc(OC)c1OC", 1.8]
]}

###

Target: High affinity 3',5'-cyclic-AMP phosphodiesterase 7A (Homo sapiens)
Experiment: Inhibition of human recombinant PDE7A1-mediated [3H]cAMP hydrolysis at 10 uM after 20 mins by scintillation proximity assay

{"columns": ["Smiles representation", "inhibition [%]"],
 "data": [
  ["COc1cc(COC(=O)c2ccco2)cc(OC)c1OC", 10],
  ["CCOc1cc(C(=O)OCc2ccc(-c3ccc([N+](=O)[O-])cc3)o2)cc(OCC)c1OCC", 39.9],
  ["COc1cc(CNC(=O)c2ccc(-c3ccc(C)cc3[N+](=O)[O-])o2)cc(OC)c1OC", 70.5],
  ["CCOc1cc(COC(=O)c2ccc(-c3ccc(C)cc3)o2)cc(OCC)c1OCC", 28],
  ["COc1cc(COC(=O)c2ccc(-c3ccccc3Cl)o2)cc(OC)c1OC", 34.6],
  ["COc1ccc(-c2ccc(C(=O)OCc3cc(OC)c(OC)c(OC)c3)o2)cc1", 14],
  ["COc1cc(COC(=O)c2ccc(-c3ccc(Cl)cc3Cl)o2)cc(OC)c1OC", 38.3],
  ["CCOc1cc(C(=O)OCc2ccc(-c3ccc(C)cc3)o2)cc(OCC)c1OCC", 16.4],
  ["COc1ccc(COC(=O)c2ccc(-c3ccccc3)o2)cc1", 44.8],
  ["COc1cc(COC(=O)c2ccc(C)o2)cc(OC)c1OC", -9.9],
  ["CCOc1cc(COC(=O)c2ccc(-c3ccc([N+](=O)[O-])cc3)o2)cc(OCC)c1OCC", 29.2],
  ["CCOc1cc(COC(=O)c2ccc(-c3ccc(Cl)cc3Cl)o2)cc(OCC)c1OCC", 31.1],
  ["COc1cc(COC(=O)c2ccc(-c3ccc(Cl)cc3[N+](=O)[O-])o2)cc(OC)c1OC", 49.1],
  ["COc1cc(COC(=O)c2ccc(-c3ccc(C)cc3)o2)cc(OC)c1OC", 30.7],
  ["COc1cc(COC(=O)c2ccc(-c3cccc(C(F)(F)F)c3)o2)cc(OC)c1OC", 14],
  ["COc1ccc(COC(=O)c2ccc(-c3ccc(Cl)cc3[N+](=O)[O-])o2)cc1", 41.6],
  ["COc1cc(C(=O)OCc2ccc(-c3ccc(Cl)cc3Cl)o2)cc(OC)c1OC", 24.4],
  ["COc1cc(COC(=O)c2ccc(-c3cc(C(F)(F)F)ccc3Cl)o2)cc(OC)c1OC", 8],
  ["COc1cc(COC(=O)c2ccc(-c3ccccc3)o2)cc(OC)c1OC", 57.9],
  ["COc1cc(CNC(=O)c2ccc(-c3cccc(C(F)(F)F)c3)o2)cc(OC)c1OC", 23.5],
  ["CCOc1cc(COC(=O)c2ccc(-c3ccccc3)o2)cc(OCC)c1OCC", 30.8]
]}

###

Target: 3',5'-cyclic-AMP phosphodiesterase 4D (Homo sapiens)
Sequence (Q08499 whole entry): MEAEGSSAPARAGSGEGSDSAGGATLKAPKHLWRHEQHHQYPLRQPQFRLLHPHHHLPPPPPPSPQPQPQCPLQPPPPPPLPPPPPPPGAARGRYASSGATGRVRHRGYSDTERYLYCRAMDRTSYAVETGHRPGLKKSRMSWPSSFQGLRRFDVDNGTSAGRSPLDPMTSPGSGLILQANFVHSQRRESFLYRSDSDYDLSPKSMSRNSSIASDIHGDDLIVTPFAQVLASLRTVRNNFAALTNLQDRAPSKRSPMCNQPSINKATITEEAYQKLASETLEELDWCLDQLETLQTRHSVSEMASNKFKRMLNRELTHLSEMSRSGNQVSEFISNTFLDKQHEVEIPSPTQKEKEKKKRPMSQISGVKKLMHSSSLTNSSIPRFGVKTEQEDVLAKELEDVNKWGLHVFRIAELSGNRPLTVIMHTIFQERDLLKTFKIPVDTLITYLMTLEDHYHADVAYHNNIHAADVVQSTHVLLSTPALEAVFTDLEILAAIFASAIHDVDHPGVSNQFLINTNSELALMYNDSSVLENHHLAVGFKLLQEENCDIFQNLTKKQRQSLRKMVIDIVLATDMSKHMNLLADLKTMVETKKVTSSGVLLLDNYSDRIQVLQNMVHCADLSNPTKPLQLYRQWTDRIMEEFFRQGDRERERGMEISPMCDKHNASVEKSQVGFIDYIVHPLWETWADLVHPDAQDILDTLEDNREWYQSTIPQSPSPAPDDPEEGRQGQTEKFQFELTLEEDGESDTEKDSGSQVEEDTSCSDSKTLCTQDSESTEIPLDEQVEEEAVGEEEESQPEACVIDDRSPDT
Assay: Inhibition of human recombinant PDE4D3 using fluorescein 3',5'-cyclic phosphate after 60 mins by IMAP fluorescence polarization assay
pIC50: −log10 of the molar value.
Measured quantity: pIC50

{"columns": ["Smiles representation", "Measured quantity", "Measured number"],
 "data": [
  ["COc1cc(COC(=O)c2ccc(-c3ccccc3)o2)cc(OC)c1OC", "pIC50", 4.18]
]}

###

Test: Permeability across after 2 hrs 30 mins by pig brain lipid membrane based PAMPA-BBB assay
Assay type: ADME
Details: read-out: permeability
Measured quantity: Papp at 2.5 h (×10⁻⁶ cm/s)

{"columns": ["Smiles representation", "Measured number"],
 "data": [
  ["COc1cc(COC(=O)c2ccc(-c3ccccc3)o2)cc(OC)c1OC", 8.1]
]}
